# protocol: Neurotoxicity in ip dosed albino mouse by rotarod test
# Assay type: toxicity, organism-based
# assay.conditions: in vivo
Listing of recorded TD50 by entry.
The answer is to be given in mg/kg; state only the numeric part.

1) CC(=O)N[C@H](COC(C)(C)C)C(=O)NCc1ccccc1 ... 100
2) CC(=O)N[C@H](COC(C)C)C(=O)NCc1ccccc1 ... 77
3) CC(=O)N[C@H](COc1ccccc1)C(=O)NCc1ccccc1 ... 30

Here is the next item to consider.
Data request, read-out TD50, for CCOC[C@@H](NC(C)=O)C(=O)NCc1ccccc1
44
